B1: SNURF (parent)
chain: QVPVVDFQAELRQAFLAETPRGG

# Variants of: B1
# assay-details: protein stability index of a GFP-peptide fusion (GPS, HEK-293T) (PSI 1-6); higher = more stable;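 further: lentivirally expressed fusions sorted by FACS into six bins by GFP to DsRed ratio, PSI derived from sequencing read proportions per bin multiplied by bin number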
# experimental-context: c terminus: native
metric-name: protein stability index

protein stability index for R21P ?
3.47

protein stability index for P20C ?
1.59

protein stability index for P20F ?
2.27

protein stability index for G22C ?
1.99

protein stability index for T19A ?
3.59

protein stability index for G23T ?
3.93

protein stability index for Q8V ?
1.43

protein stability index for G22Y ?
2.51

protein stability index for F15R ?
1.95

protein stability index for R12E ?
2.54

protein stability index for G23F ?
2.27

protein stability index for Q8L ?
3.47

protein stability index for V5D ?
1.7

protein stability index for R12N ?
2.92

protein stability index for L11S ?
2.27

protein stability index for V5S ?
4.05

protein stability index for Q13S ?
3.53

protein stability index for G23Q ?
2.42

protein stability index for P3V ?
3.01

protein stability index for Q8Y ?
2.98

protein stability index for G22R ?
2.73

protein stability index for Q13D ?
2.15

The values you see were collected from the supplement of paper PMC10567573.
